# experiment-description: in vitro
# condition-description: human
readout-type: IC50 (µM)
Record the value in µM, omitting the unit from your answer.

Challenge: Look up IC50: `N=C(N)c1ccc2cc(OC(=O)c3ccc(N=C(N)N)cc3)ccc2c1`
Response given: 15.8

Cited source for all entries: paper PMC7781311
